target: GCGR extracellular domain (human, UniProt P47871); experiment: SPR
Sequence (P47871 26-477): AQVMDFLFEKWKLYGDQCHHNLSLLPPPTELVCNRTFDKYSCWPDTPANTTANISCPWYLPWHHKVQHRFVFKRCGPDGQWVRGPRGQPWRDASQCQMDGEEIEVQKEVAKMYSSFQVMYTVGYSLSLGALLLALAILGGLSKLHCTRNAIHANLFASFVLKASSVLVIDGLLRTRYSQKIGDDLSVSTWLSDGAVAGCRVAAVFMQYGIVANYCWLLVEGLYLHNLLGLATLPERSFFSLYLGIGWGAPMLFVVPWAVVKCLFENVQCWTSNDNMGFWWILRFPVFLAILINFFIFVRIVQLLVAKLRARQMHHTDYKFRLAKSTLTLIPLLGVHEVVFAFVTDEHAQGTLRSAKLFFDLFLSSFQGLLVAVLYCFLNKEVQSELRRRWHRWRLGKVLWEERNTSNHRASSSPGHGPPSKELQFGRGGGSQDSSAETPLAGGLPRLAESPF
Documented Kd across a set of binders
measuredMetric: Kd (nM)

1. VL S93K (antibody, V domains shown) VH: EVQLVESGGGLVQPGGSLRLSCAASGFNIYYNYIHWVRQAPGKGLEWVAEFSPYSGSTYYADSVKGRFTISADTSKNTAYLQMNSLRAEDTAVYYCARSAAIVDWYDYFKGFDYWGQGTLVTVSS VL: DIQMTQSPSSLSASVGDRVTITCRASQSVSSAVAWYQQKPGKAPKLLIYSASSLYSGVPSRFSGSRSGTDFTLTISSLQPEDFATYYCQQYGKYLYTFGQGTKVEIK :: 2.91
2. VH Y30T (antibody, V domains shown) VH: EVQLVESGGGLVQPGGSLRLSCAASGFNITYNYIHWVRQAPGKGLEWVAEFSPYSGSTYYADSVKGRFTISADTSKNTAYLQMNSLRAEDTAVYYCARSAAIVDWYDYFKGFDYWGQGTLVTVSS VL: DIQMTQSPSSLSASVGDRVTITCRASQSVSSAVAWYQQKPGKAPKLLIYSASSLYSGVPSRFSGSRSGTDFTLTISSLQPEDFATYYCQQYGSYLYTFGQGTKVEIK :: 24.8
3. VL S93F (antibody, V domains shown) VH: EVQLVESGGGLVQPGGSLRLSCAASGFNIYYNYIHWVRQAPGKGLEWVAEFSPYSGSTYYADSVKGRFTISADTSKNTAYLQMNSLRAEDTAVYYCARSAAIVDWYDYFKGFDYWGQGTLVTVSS VL: DIQMTQSPSSLSASVGDRVTITCRASQSVSSAVAWYQQKPGKAPKLLIYSASSLYSGVPSRFSGSRSGTDFTLTISSLQPEDFATYYCQQYGFYLYTFGQGTKVEIK :: 5.59
4. VH Y33A (antibody, V domains shown) VH: EVQLVESGGGLVQPGGSLRLSCAASGFNIYYNAIHWVRQAPGKGLEWVAEFSPYSGSTYYADSVKGRFTISADTSKNTAYLQMNSLRAEDTAVYYCARSAAIVDWYDYFKGFDYWGQGTLVTVSS VL: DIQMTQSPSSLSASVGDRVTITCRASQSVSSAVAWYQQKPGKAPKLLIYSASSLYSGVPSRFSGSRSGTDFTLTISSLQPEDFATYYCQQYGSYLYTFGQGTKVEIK :: 267
5. VL Y91W (antibody, V domains shown) VH: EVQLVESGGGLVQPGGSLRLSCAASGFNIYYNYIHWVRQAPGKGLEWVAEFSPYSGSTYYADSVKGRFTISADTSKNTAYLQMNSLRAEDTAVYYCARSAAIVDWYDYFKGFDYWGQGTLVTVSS VL: DIQMTQSPSSLSASVGDRVTITCRASQSVSSAVAWYQQKPGKAPKLLIYSASSLYSGVPSRFSGSRSGTDFTLTISSLQPEDFATYYCQQWGSYLYTFGQGTKVEIK :: 3.02
